// data source = patent US20080070954A1

molecular target: HDAC1 enzyme (recombinant GST-HDAC1) (Homo sapiens); construct: Amplification of human HDAC1 and HDAC8 coding region from this cDNA library; made in house; host or cells: SF9 insect cells (baculovirus, pDEST20 vector); assay: In vitro HDAC assay for determination of IC50 values (BIOMOL fluorescent-based), HDAC1; type: biochemical; conditions: 600 nM HDAC1 enzyme, 500 μM Flur de lys generic substrate, 2 h room temperature
Sequence (Q13547 whole entry): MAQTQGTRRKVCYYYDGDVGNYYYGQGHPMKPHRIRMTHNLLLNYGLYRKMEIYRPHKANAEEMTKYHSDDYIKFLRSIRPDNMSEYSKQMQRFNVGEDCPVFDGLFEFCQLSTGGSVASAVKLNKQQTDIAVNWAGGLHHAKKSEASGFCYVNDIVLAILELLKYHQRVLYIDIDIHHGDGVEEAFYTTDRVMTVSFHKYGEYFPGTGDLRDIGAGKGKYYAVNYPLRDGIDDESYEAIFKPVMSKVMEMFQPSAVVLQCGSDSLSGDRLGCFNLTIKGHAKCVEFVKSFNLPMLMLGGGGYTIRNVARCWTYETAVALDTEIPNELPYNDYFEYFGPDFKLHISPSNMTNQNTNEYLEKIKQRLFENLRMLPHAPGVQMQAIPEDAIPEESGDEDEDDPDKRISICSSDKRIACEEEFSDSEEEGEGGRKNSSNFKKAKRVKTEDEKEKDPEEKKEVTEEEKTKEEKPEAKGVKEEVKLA
VALUE KIND: IC50 (nM)

These recorded examples may help you get a feel for the data.
# SMILES REPRESENTATION, IC50 (nM)
measured = [
    ("O=C(CCCCCCCNC(=O)NC(=O)c1ccccc1)NO", 98),
    ("O=C(/C=C/c1ccc(CN(CCN2CCCC2)C(=O)NC(=O)c2ccccc2)cc1)NO", 24),
    ("O=C(/C=C/c1ccc(CN(CCc2ccccc2)C(=O)NC(=O)c2ccccc2)cc1)NO", 12),
]

[a] O=C(NCc1ccc(C(=O)NO)cc1)NC(=O)c1ccccc1
[b] Cc1ccc(S(=O)(=O)NC(=O)NCCCCCCCC(=O)NO)cc1
[c] O=C(/C=C/c1ccc(CN(CCc2c[nH]c3ccccc23)C(=O)NC(=O)c2ccccc2)cc1)NO
[d] O=C(NO)c1ccc(CN2CCN(C(=O)NC(=O)c3ccccc3)CC2)cc1
[e] O=C(CCCCCNC(=O)NC(=O)c1ccccc1)NO
[ask] Arrange the 5 entries by IC50 so the values rise. Labels, ranked as asked.
[reply] c, e, a, b, d
(c: 4 nM, e: 56 nM, a: 130 nM, b: 1130 nM, d: 2870 nM)

###

Tested on: MDA-MB231 human breast cancer cell line
Assay: Cell-based proliferation assay for determination of GI50 values, MDA-MB231
Details: MDA-MB231 cells, 96 h treatment, cyquant assay
Method: Human colon cancer cell lines (Colo205) and human breast cancer cell lines (MDA-MB435 and MDA-MB231) were obtained from ATCC. Colo205 cells were cultivated in RPMI 1640 containing 2 mM L-Glutamine, 5% FBS, 1.0 mM Na Pyruvate. MDA-MB231 cells were cultivated in RPMI 1640 containing 2 mM L-glutamine, 5% FBS. MDA-MB435 cells were cultivated in DMEM containing 2 mM L-Glutamine, 5% FBS. […] Cell growth was then monitored using cyquant cell proliferation assay (Invitrogen Pte Ltd). […]
VALUE KIND: MDA-MB231 Gl50 (µM)
Write the value in µM as a bare number.

These recorded examples may help you get a feel for the data.
# COMPOUND, TESTED TARGET, MDA-MB231 Gl50, µM
records = [
    ("O=C(/C=C/c1ccc(CN(CCc2c[nH]c3ccccc23)C(=O)NC(=O)c2ccccc2)cc1)NO [Example 11]", "MDA-MB231 human breast cancer cell line", 0.26),
    ("O=C(NCc1ccc(C(=O)NO)cc1)NC(=O)c1ccccc1 [Example 6]", "MDA-MB231 human breast cancer cell line", 1.92),
    ("O=C(CCCCCNC(=O)NC(=O)c1ccccc1)NO [Example 10]", "MDA-MB231 human breast cancer cell line", 1.03),
]

Attention now turns to another entry.
[ask] What does the record list as MDA-MB231 Gl50 for O=C(/C=C/c1ccc(CN(CCc2ccccc2)C(=O)NC(=O)c2ccccc2)cc1)NO [Example 23] ?
[reply] 0.26

###

molecular target: HDAC1 enzyme (recombinant GST-HDAC1) (Homo sapiens); construct: Amplification of human HDAC1 and HDAC8 coding region from this cDNA library; assay: In vitro HDAC assay for determination of IC50 values (BIOMOL fluorescent-based), HDAC1; settings: 600 nM HDAC1 enzyme, 500 μM Flur de lys generic substrate, 2 h room temperature
VALUE KIND: IC50 (µM)

These recorded examples may help you get a feel for the data.
# SMILES REPRESENTATION, TEST RESULT
rows = [
    ("O=C(CCCCCNC(=S)NC(=O)c1ccccc1)NO", 0.027),
    ("Cc1ccc(S(=O)(=O)NC(=O)NCc2ccc(C(=O)NO)cc2)cc1", 2.92),
]

[1] O=C(/C=C/c1ccc(CN(CCN2CCCCC2)C(=O)NC(=O)c2ccccc2)cc1)NO
[2] O=C(CCCCCCNC(=O)NC(=O)c1ccccc1)NO
[3] Cc1ccc(S(=O)(=O)NC(=O)Nc2cccc(/C=C/C(=O)NO)c2)cc1
[4] Cc1ccc(S(=O)(=O)NC(=O)Nc2ccc(/C=C/C(=O)NO)cc2)cc1
[ask] Arrange the 4 entries by IC50 so the values rise. Labels, ranked as asked.
[reply] 1, 2, 3, 4

###

biological target: HDAC8 enzyme (recombinant GST-HDAC8) (Homo sapiens, UniProt Q9BY41); construct: Amplification of human HDAC1 and HDAC8 coding region from this cDNA library; experiment: In vitro HDAC assay for determination of IC50 values (BIOMOL fluorescent-based), HDAC8; details: 500 nM HDAC8 enzyme, 200 μM Flur de lys p53 peptide substrate, 2 h room temperature
Sequence (Q9BY41 whole entry): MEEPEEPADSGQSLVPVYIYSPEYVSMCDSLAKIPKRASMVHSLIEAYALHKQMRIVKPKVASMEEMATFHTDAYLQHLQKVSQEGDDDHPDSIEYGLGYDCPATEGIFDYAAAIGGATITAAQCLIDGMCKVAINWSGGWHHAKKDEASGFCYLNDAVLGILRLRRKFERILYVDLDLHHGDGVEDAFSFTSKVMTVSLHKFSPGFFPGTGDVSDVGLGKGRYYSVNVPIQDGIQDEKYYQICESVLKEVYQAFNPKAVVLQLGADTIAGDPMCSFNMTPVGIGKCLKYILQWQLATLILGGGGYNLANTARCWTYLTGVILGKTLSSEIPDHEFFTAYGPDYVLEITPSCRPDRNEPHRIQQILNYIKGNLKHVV
pIC50: −log10 of the molar value.
VALUE KIND: pIC50

# COMPOUND, TESTED TARGET, TEST RESULT
data = [
    ("O=C(/C=C/c1ccc(CN(CCc2ccccc2)C(=O)NC(=O)c2ccccc2)cc1)NO [Example 23]", "HDAC8 enzyme (recombinant GST-HDAC8) (Homo sapiens, UniProt Q9BY41)", 6.70),
    ("O=C(CCCCCCCNC(=O)NC(=O)c1ccccc1)NO [Example 12]", "HDAC8 enzyme (recombinant GST-HDAC8) (Homo sapiens, UniProt Q9BY41)", 6.40),
    ("Cc1ccc(S(=O)(=O)NC(=O)Nc2ccc(/C=C/C(=O)NO)cc2)cc1 [Example 2]", "HDAC8 enzyme (recombinant GST-HDAC8) (Homo sapiens, UniProt Q9BY41)", 7.40),
    ("O=C(NO)c1ccc(CN2CCN(C(=O)NC(=O)c3ccccc3)CC2)cc1 [Example 30]", "HDAC8 enzyme (recombinant GST-HDAC8) (Homo sapiens, UniProt Q9BY41)", 6.34),
]

[A] O=C(CCCCCNC(=S)NC(=O)c1ccccc1)NO [Example 18]
[B] Cc1ccc(S(=O)(=O)NC(=O)Nc2ccc(CC(=O)NO)cc2)cc1 [Example 5]
[C] Cc1ccc(S(=O)(=O)NC(=O)Nc2cccc(/C=C/C(=O)NO)c2)cc1 [Example 3]
[D] O=C(Cc1ccc(NC(=O)NC(=O)c2ccccc2)cc1)NO [Example 8]
[E] O=C(/C=C/c1ccc(CN(CCN2CCCC2)C(=O)NC(=O)c2ccccc2)cc1)NO [Example 47]
[ask] Arrange the 5 entries by pIC50 so the values rise. Labels, ranked as asked.
[reply] A, E, B, D, C

###

target: HDAC1 enzyme (recombinant GST-HDAC1) (Homo sapiens); construct: Amplification of human HDAC1 and HDAC8 coding region from this cDNA library; assay: In vitro HDAC assay for determination of IC50 values (BIOMOL fluorescent-based), HDAC1; conditions: 600 nM HDAC1 enzyme, 500 μM Flur de lys generic substrate, 2 h room temperature
VALUE KIND: IC50

These recorded examples may help you get a feel for the data.
# SMILES REPRESENTATION, IC50
rows = [
    ("O=C(Cc1ccc(NC(=O)NC(=O)c2ccccc2)cc1)NO", "> 100 µM"),
    ("Cc1ccc(S(=O)(=O)NC(=O)NCCCCCC(=O)NO)cc1", "> 100 µM"),
]

Attention now turns to another entry.
[ask] What does the record list as IC50 for O=C(Cc1cccc(NC(=O)NC(=O)c2ccccc2)c1)NO ?
[reply] > 100 µM
